Source of measurements: patent US8383622B2

# system_name: UniProt:P50172
# Sequence (P50172 whole entry): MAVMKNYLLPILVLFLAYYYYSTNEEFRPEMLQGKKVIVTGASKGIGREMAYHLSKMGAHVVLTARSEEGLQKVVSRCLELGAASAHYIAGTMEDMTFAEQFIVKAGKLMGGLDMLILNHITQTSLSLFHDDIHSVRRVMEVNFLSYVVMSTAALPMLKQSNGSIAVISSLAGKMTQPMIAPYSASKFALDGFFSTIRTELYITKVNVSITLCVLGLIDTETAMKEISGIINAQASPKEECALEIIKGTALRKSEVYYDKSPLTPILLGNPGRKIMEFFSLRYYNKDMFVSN
quantity: IC50

Record excerpt, results attached:
{"compound": "COC(=O)NC(C)(C)/C=C/n1ncc(C(=O)NC2C3CC4CC2CC(COC(N)=O)(C4)C3)c1-n1cccn1 (centres unmarked)", "system_name": "UniProt:P50172", "data_value": "0.37 nM"}
{"compound": "COC(=O)NC(C)(C)/C=C/n1ncc(C(=O)N[C@H]2C3CC4CC2C[C@](F)(C4)C3)c1-c1ccccc1", "system_name": "UniProt:P50172", "data_value": "5.5 nM"}
{"compound": "COC(=O)NC(C)(C)/C=C/n1ncc(C(=O)N[C@H]2C3CC4CC2C[C@](OC(N)=O)(C4)C3)c1-c1ccccc1", "system_name": "UniProt:P50172", "data_value": "3 nM"}
{"compound": "CC(C)COc1c(C(=O)N[C@H]2C3CC4CC2C[C@](OC(N)=O)(C4)C3)cnn1/C=C/C(C)(C)NS(C)(=O)=O", "system_name": "UniProt:P50172", "data_value": "1.7 nM"}

Ask: Request body: readout IC50, system UniProt:P50172, query "CC(=O)NC(C)(C)/C=C/n1ncc(C(=O)N[C@H]2C3CC4CC2C[C@](CO)(C4)C3)c1-c1ccccc1" . Return the value.
Result: 1.4 nM

---

Quick list: log k′ per entry.
# protocol: log k′ (degree of lipophilic character) by gradient HPLC
# Type: physicochemical
# condition_label: XTerra MS C18 column; acetonitrile/pH6.8 buffer gradient 5:95-95:5/20 min
Returns: the value as a bare number; no unit string appended.

Ask: Quick check: log k′ of "CC(=O)NC(C)(C)CCn1ncc(C(=O)N[C@H]2C3CC4CC2C[C@](CO)(C4)C3)c1OCC(C)C" ?
Result: 0.842

---

# protocol: log k′ (degree of lipophilic character) by gradient HPLC
# Assay type: physicochemical
# condition_label: XTerra MS C18 column; acetonitrile/pH6.8 buffer gradient 5:95-95:5/20 min
Reported log k′ is given for each of the following compounds.
Form: value (number only, do not type unit).

Take a look at these entries with their results.
{"compound": "CC(=O)NCC(C)(C)/C=C/n1ncc(C(=O)N[C@H]2C3CC4CC2C[C@](OC(N)=O)(C4)C3)c1OCC(C)C", "log k′": 0.85}
{"compound": "COC(=O)NC(C)(C)CCn1ncc(C(=O)N[C@H]2C3CC4CC2C[C@](COC(N)=O)(C4)C3)c1OCC(C)C", "log k′": 0.899}
{"compound": "CC(C)COc1c(C(=O)N[C@H]2C3CC4CC2C[C@](OC(N)=O)(C4)C3)cnn1/C=C/C(C)(C)NC(=O)CC(C)C", "log k′": 0.927}
{"compound": "CC(C)COc1c(C(=O)N[C@H]2C3CC4CC2C[C@](O)(C4)C3)cnn1/C=C/C(C)(C)NC(=O)CC(C)C", "log k′": 0.895}
{"compound": "CC(C)COc1c(C(=O)NC2C3CC4(O)CC2CC(O)(C3)C4)cnn1/C=C/C(C)(C)C(N)=O (stereo not drawn)", "log k′": 0.682}

# ---- query compound ----
Ask: Field request: log k′ | item: "CC(=O)NC(C)(C)/C=C/n1ncc(C(=O)N[C@H]2C3CCCC2C[C@H](C(N)=O)C3)c1OCC(C)C"
Result: 0.795
